target: EML4-ALK (Homo sapiens); construct: endogenous in cells; host or cells: H3122 (NSCLC), single-cell clone after CRISPR knock-in of HiBit; the other entry of the earlier key: EML4 (Q9HC35, Echinoderm microtubule-associated protein-like 4); experiment: EML4-ALK HiBit degradation assay in CRISPR-tagged H3122 cells (Nano-Glo HiBit Lytic Detection); format: cell-based; conditions: NCI-H3122, Table 1; average Dmax; read-out: Degradation Avg. Dmax
Sequence (Q9UM73 with tags, fused parts or gaps): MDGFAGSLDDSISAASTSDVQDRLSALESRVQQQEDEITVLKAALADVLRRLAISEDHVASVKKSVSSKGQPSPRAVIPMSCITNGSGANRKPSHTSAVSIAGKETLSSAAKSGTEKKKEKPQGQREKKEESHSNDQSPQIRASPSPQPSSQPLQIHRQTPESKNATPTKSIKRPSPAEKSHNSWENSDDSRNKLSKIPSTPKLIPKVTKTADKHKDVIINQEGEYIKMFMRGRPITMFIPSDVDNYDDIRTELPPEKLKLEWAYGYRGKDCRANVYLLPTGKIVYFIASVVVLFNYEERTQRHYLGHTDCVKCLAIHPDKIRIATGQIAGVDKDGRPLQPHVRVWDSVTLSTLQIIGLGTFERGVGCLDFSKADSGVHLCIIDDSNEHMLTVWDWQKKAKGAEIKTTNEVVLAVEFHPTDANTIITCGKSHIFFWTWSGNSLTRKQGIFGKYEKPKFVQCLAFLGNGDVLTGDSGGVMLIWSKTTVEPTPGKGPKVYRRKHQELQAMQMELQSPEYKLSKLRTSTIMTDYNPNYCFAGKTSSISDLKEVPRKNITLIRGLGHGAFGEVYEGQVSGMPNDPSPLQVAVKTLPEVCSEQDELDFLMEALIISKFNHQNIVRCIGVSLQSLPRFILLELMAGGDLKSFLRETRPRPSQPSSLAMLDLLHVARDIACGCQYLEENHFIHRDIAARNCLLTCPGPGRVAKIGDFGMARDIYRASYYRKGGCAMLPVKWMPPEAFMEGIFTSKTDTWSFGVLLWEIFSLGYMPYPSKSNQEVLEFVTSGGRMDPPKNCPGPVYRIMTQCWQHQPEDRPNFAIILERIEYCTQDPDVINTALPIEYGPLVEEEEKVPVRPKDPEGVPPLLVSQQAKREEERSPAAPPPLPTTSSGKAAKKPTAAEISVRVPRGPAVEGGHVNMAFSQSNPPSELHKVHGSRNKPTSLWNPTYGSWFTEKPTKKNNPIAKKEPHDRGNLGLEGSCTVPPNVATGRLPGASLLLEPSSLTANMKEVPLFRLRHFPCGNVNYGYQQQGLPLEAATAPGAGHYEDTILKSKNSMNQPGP
Label 1 when Dmax is at or above 50%; anything below gets -1.

[
  {
    "molecule": "COc1cc(CCN(C)C(=O)CCCCCCCC(=O)N[C@H](C(=O)N2C[C@H](O)C[C@H]2C(=O)N[C@@H](C)c2ccc(-c3scnc3C)cc2)C(C)(C)C)c(C)cc1Nc1ncc(Cl)c(Nc2ccccc2S(=O)(=O)C(C)C)n1",
    "label.value": 1
  },
  {
    "molecule": "CN[C@@H](C)C(=O)N[C@H](C(=O)N1Cc2cc(OCCCCCNCCc3cc(OC)c(Nc4ncc(Cl)c(Nc5ccccc5S(=O)(=O)C(C)C)n4)cc3C)ccc2C[C@H]1C(=O)N[C@H]1CCCc2ccccc21)C(C)(C)C",
    "label.value": 1
  },
  {
    "molecule": "COc1cc(CCN(C)C(=O)CCCNc2cccc3c2C(=O)N(C2CCC(=O)NC2=O)C3=O)c(C)cc1Nc1ncc(Cl)c(Nc2ccccc2S(=O)(=O)C(C)C)n1 (centres unmarked)",
    "label.value": -1
  },
  {
    "molecule": "COc1cc(CCN(C)C(=O)CCOCCOCCNC(=O)COc2cccc3c2C(=O)N(C2CCC(=O)NC2=O)C3=O)c(C)cc1Nc1ncc(Cl)c(Nc2ccccc2S(=O)(=O)C(C)C)n1 (centres unmarked)",
    "label.value": -1
  }
]

----------
target: FAK (Homo sapiens); construct: FAK Degradation; endogenous in cells; host or cells: H3122; assay: FAK degradation (H3122 cells); type: cell-based; details: Table 3
Sequence (Q05397 whole entry): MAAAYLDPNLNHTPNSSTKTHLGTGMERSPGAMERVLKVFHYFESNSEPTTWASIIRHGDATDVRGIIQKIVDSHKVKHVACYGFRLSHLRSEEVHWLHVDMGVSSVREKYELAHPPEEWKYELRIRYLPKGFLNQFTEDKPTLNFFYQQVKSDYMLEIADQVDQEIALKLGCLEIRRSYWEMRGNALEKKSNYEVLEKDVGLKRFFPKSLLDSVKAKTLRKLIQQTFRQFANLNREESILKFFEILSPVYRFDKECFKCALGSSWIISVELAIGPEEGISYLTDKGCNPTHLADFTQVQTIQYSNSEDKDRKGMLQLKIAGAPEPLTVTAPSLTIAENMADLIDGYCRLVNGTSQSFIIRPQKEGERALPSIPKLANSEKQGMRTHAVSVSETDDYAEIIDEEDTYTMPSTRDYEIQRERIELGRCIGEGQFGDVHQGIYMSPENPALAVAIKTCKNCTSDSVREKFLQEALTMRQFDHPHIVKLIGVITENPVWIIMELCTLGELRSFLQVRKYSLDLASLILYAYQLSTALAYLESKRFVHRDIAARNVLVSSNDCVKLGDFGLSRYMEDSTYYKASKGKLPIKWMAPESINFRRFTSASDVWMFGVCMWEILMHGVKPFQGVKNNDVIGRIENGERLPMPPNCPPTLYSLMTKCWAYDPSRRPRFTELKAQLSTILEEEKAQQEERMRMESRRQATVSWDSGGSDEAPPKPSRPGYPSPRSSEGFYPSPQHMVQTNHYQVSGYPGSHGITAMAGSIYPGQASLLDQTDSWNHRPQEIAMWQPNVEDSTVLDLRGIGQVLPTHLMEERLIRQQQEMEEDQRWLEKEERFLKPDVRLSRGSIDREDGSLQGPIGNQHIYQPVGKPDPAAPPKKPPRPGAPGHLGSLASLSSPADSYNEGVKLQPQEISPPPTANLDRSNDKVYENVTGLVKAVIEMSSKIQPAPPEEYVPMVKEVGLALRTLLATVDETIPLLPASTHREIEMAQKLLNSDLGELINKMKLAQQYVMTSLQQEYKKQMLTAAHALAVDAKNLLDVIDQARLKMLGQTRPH
DC50 overview

[
  {
    "compound": "COc1cc(C2CCN(CC#Cc3ccc4c(c3)CN(C3CCC(=O)NC3=O)C4=O)CC2)c(C)cc1Nc1ncc(Cl)c(Nc2ccccc2S(=O)(=O)C(C)C)n1 (stereo not shown)",
    "DC50 / nM": 8
  },
  {
    "compound": "COc1cc(CCNCCCCCC#Cc2cccc3c2CN(C2CCC(=O)NC2=O)C3=O)c(C)cc1Nc1ncc(Cl)c(Nc2ccccc2S(=O)(=O)C(C)C)n1 (stereo not shown)",
    "DC50 / nM": 4
  },
  {
    "compound": "COc1cc(N2CCC(NC(=O)CCCCCCCCCC(=O)N[C@H](C(=O)N3C[C@H](O)C[C@H]3C(=O)NCc3ccc(-c4scnc4C)cc3)C(C)(C)C)CC2)ccc1Nc1ncc(Cl)c(Nc2ccccc2P(C)(C)=O)n1",
    "DC50 / nM": 10
  },
  {
    "compound": "COc1cc(CCNCCCCCC#Cc2ccc3c(c2)CN(C2CCC(=O)NC2=O)C3=O)c(C)cc1Nc1ncc(Cl)c(Nc2ccccc2S(=O)(=O)C(C)C)n1 (stereo not shown)",
    "DC50 / nM": 4
  },
  {
    "compound": "COc1cc(C2CCN(CCCCC#Cc3cccc4c3CN(C3CCC(=O)NC3=O)C4=O)CC2)c(C)cc1Nc1ncc(Cl)c(Nc2ccccc2S(=O)(=O)C(C)C)n1 (stereo not shown)",
    "DC50 / nM": 1
  },
  {
    "compound": "COc1cc(C2CCN(CCCCCC#Cc3cccc4c3C(=O)N(C3CCC(=O)NC3=O)C4=O)CC2)c(C)cc1Nc1ncc(Cl)c(Nc2ccccc2S(=O)(=O)C(C)C)n1 (stereo not shown)",
    "DC50 / nM": 24
  },
  {
    "compound": "COc1cc(C2CCN(CCCC#Cc3cccc4c3CN(C3CCC(=O)NC3=O)C4=O)CC2)c(C)cc1Nc1ncc(Cl)c(Nc2ccccc2S(=O)(=O)C(C)C)n1 (stereo not shown)",
    "DC50 / nM": 2
  }
]
